Data credit: patent US20260028350A1

system: KPL-4 Cells; assay: Cell proliferation inhibition test (CellTiter-Glo, 72h); assay type: cell-based; details: 72h incubation, Table 2 run
Quick reference: GI50 of the listed items.
Number in nM, nothing else.

Below are worked cases with known answers.
molecule: CC[C@@]1(O)C(=O)OCc2c1cc1n(c2=S)Cc2c-1nc1cc(F)c(C)c3c1c2[C@@H](NC(=O)C1CC(O)C1)CC3 (stereo partly shown) [Example 29]
obs value: 5.96

molecule: CC[C@@]1(O)C(=O)OCc2c1cc1n(c2=S)Cc2c-1nc1cc(F)c(C)c3c1c2[C@@H](NC(=O)C1CC(O)C1)CC3 (stereo partly shown) [Example 30]
obs value: 11.3

molecule: CC[C@@]1(O)C(=O)OCc2c1cc1n(c2=S)Cc2c-1nc1cc(F)c(C)c3c1c2[C@@H](NC(=O)C1CCC(O)CC1)CC3 (stereo partly shown) [Example 33]
obs value: 6.34

Please turn your attention to the following entry.
**Query** Report measured GI50 on KPL-4 Cells; entry: CC[C@@]1(O)C(=O)OCc2c1cc1n(c2=S)Cc2c-1nc1cc(F)c(C)c3c1c2[C@@H](NC(=O)C1CCC(O)CC1)CC3 (stereo partly shown) [Example 32]
**Result** 8.47
